Would you mind telling me the reported solubility change mitosis (log2) of each entry?
System: HeLa Kyoto;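 further: synchronized HeLa Kyoto cells (double thymidine block for G1/S, nocodazole release for mitosis), protein amounts in NP-40 versus SDS lysates quantified by mass spectrometry, three biological replicates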
Assay: solubility change mitosis vs G1/S (difference of NP-40 vs SDS log2 ratios) (log2 ratio difference); higher = more soluble in mitosis
# respond with the number and nothing more

Inquiry: Data request, read-out solubility change mitosis (log2), for MCAARLAAAAAAAQSVYAFSARPLAGGEPVSLGSLRGKVLLIENVASLUGTTVRDYTQMNELQRRLGPRGLVVLGFPCNQFGHQENAKNEEILNSLKYVRPGGGFEPNFMLFEKCEVNGAGAHPLFAFLREALPAPSDDATALMTDPKLITWSPVCRNDVAWNFEKFLVGPDGVPLRRYSRRFQTIDIEPDIEALLSQGPSCA [GPX1]
Reply text: -0.15

Inquiry: // next record MAASAGAGAVIAAPDSRRWLWSVLAAALGLLTAGVSALEVYTPKEIFVANGTQGKLTCKFKSTSTTGGLTSVSWSFQPEGADTTVSFFHYSQGQVYLGNYPPFKDRISWAGDLDKKDASINIENMQFIHNGTYICDVKNPPDIVVQPGHIRLYVVEKENLPVFPVWVVVGIVTAVVLGLTLLISMILAVLYRRKNSKRDYTGCSTSESLSPVKQAPRKSPSDTEGLVKSLPSGSHQGPVIYAQLDHSGGHHSDKINKSESVVYADIRKN [MPZL1]
Reply text: -0.289

Inquiry: Lookup MPLGLGRRKKAPPLVENEEAEPGRGGLGVGEPGPLGGGGSGGPQMGLPPPPPALRPRLVFHTQLAHGSPTGRIEGFTNVKELYGKIAEAFRLPTAEVMFCTLNTHKVDMDKLLGGQIGLEDFIFAHVKGQRKEVEVFKSEDALGLTITDNGAGYAFIKRIKEGSVIDHIHLISVGDMIEAINGQSLLGCRHYEVARLLKELPRGRTFTLKLTEPRKAFDMISQRSAGGRPGSGPQLGTGRGTLRLRSRGPATVEDLPSAFEEKAIEKVDDLLESYMGIRDTELAATMVELGKDKRNPDELAEALDERLGDFAFPDEFVFDVWGAIGDAKVGRY [GIPC1]
Reply text: -0.156

Inquiry: What do you have for MSDEREVAEAATGEDASSPPPKTEAASDPQHPAASEGAAAAAASPPLLRCLVLTGFGGYDKVKLQSRPAAPPAPGPGQLTLRLRACGLNFADLMARQGLYDRLPPLPVTPGMEGAGVVIAVGEGVSDRKAGDRVMVLNRSGMWQEEVTVPSVQTFLIPEAMTFEEAAALLVNYITAYMVLFDFGNLQPGHSVLVHMAAGGVGMAAVQLCRTVENVTVFGTASASKHEALKENGVTHPIDYHTTDYVDEIKKISPKGVDIVMDPLGGSDTAKGYNLLKPMGKVVTYGMANLLTGPKRNLMALARTWWNQFSVTALQLLQANRAVCGFHLGYLDGEVELVSGVVARLLALYNQGHIKPHIDSVWPFEKVADAMKQMQEKKNVGKVLLVPGPEKEN [VAT1] ?
Reply text: -0.125

Inquiry: Entry to check: MFRLLSWSLGRGFLRAAGRRCRGCSARLLPGLAGGPGPEVQVPPSRVAPHGRGPGLLPLLAALAWFSRPAAAEEEEQQGADGAAAEDGADEAEAEIIQLLKRAKLSIMKDEPEEAELILHDALRLAYQTDNKKAITYTYDLMANLAFIRGQLENAEQLFKATMSYLLGGGMKQEDNAIIEISLKLASIYAAQNRQEFAVAGYEFCISTLEEKIEREKELAEDIMSVEEKANTHLLLGMCLDACARYLLFSKQPSQAQRMYEKALQISEEIQGERHPQTIVLMSDLATTLDAQGRFDEAYIYMQRASDLARQINHPELHMVLSNLAAVLMHRERYTQAKEIYQEALKQAKLKKDEISVQHIREELAELSKKSRPLTNSVKL [TTC19]
Reply text: 0.00456

Inquiry: Please give the result for MASTSRLDALPRVTCPNHPDAILVEDYRAGDMICPECGLVVGDRVIDVGSEWRTFSNDKATKDPSRVGDSQNPLLSDGDLSTMIGKGTGAASFDEFGNSKYQNRRTMSSSDRAMMNAFKEITTMADRINLPRNIVDRTNNLFKQVYEQKSLKGRANDAIASACLYIACRQEGVPRTFKEICAVSRISKKEIGRCFKLILKALETSVDLITTGDFMSRFCSNLCLPKQVQMAATHIARKAVELDLVPGRSPISVAAAAIYMASQASAEKRTQKEIGDIAGVADVTIRQSYRLIYPRAPDLFPTDFKFDTPVDKLPQL [GTF2B] too.
Reply text: -0.111

Inquiry: Item: MARNAEKAMTALARFRQAQLEEGKVKERRPFLASECTELPKAEKWRRQIIGEISKKVAQIQNAGLGEFRIRDLNDEINKLLREKGHWEVRIKELGGPDYGKVGPKMLDHEGKEVPGNRGYKYFGAAKDLPGVRELFEKEPLPPPRKTRAELMKAIDFEYYGYLDEDDGVIVPLEQEYEKKLRAELVEKWKAEREARLARGEKEEEEEEEEEINIYAVTEEESDEEGSQEKGGDDSQQKFIAHVPVPSQQEIEEALVRRKKMELLQKYASETLQAQSEEARRLLGY [ISY1]
Reply text: 0.254

Inquiry: MVRDSMAAAFRPSNRVLLQALQILVYPGVGGSGSVSCRCPLGAKRYLLTDNVVKLKEFQQKKVAVACNLSGTKETYFRNLKKKLTQNKLILKGELITLLHLCESRDHVELAKNVIYRYHAENKNFTLGEYKFGPLFVRLCYELDLEESAVELMKDQHLRGFFSDSTSFNILMDMLFIKGKYKSALQVLIEMKNQDVKFTKDTYVLAFAICYKLNSPESFKICTTLREEALLKGEILSRRASCFAVALALNQNEMAKAVSIFSQIMNPESIACINLNIIIHIQSNMLENLIKTLKNAAEGNLSKFVKRHVFSEEVLAKVREKVKDVPALVAKFDEIYGTLHITGQVTTDSLDAVLCHTPRDRKSHTLLLNKRMVSRRTFQPLSQSLLAE [PTCD2] , same question.
Reply text: 0.106

Inquiry: Repeat for the following sequence: MGFLRRLIYRRRPMIYVESSEESSDEQPDEVESPTQSQDSTPAEEREDEGASAAQGQEPEADSQELVQPKTGCELGDGPDTKRVCLRNEEQMKLPAEGPEPEADSQEQVHPKTGCERGDGPDVQELGLPNPEEVKTPEEDEGQSQP [PAGE1]
Reply text: 0.603

Inquiry: What do we get for MAPKGSSKQQSEEDLLLQDFSRNLSAKSSALFFGNAFIVSAIPIWLYWRIWHMDLIQSAVLYSVMTLVSTYLVAFAYKNVKFVLKHKVAQKREDAVSKEVTRKLSEADNRKMSRKEKDERILWKKNEVADYEATTFSIFYNNTLFLVVVIVASFFILKNFNPTVNYILSISASSGLIALLSTGSK [SSR3] ?
Reply text: 0.126

Reference for the values: the supplement of paper PMC5998384
